The origin of these recorded values is the supplement of paper PMC11172423.

# Test system: Madurella mycetomatis MM55
# assay overview: growth relative to untreated control; higher = less inhibition, active = 20 or less
# conditions used: 25 µM
Outcome label depends on growth relative to 90%: at/above gives Fulfilled, below gives Not fulfilled.

Worked examples, 3 compounds total:
[ask] Test whether the compound NC(=O)C(c1ccccc1)(c1ccccc1)[C@@H]1CCN(CCc2ccc3c(c2)CCO3)C1 records growth of 90% or higher.
[reply] Fulfilled

[ask] Test whether the compound Cc1ccc(Cl)cc1NC(=O)c1c(-c2ccccc2Cl)noc1C records growth of 90% or higher.
[reply] Not fulfilled

[ask] Test whether the compound C[C@H](NC(=O)c1cc2nc(C(F)(F)F)ccc2[nH]1)c1ccccc1 records growth of 90% or higher.
[reply] Not fulfilled

Others:
[ask] Test whether the compound CCOc1ccccc1NC(=O)Cn1c(=O)n(Cc2ccccc2)c(=O)c2c(C)c(C(=O)N(C)C)sc21 records growth of 90% or higher.
[reply] Fulfilled

[ask] Test whether the compound CC(C)(C)NCc1cc(Nc2ccnc3cc(Cl)ccc23)c2c(c1O)CCCC2 records growth of 90% or higher.
[reply] Fulfilled

[ask] Test whether the compound O=C(c1ccc(Nc2nccc(-c3cc(Cl)cc(C(F)(F)F)c3)n2)cc1)N1CC2(COC2)C1 records growth of 90% or higher.
[reply] Not fulfilled

[ask] Test whether the compound CN(C)C(=O)COC(=O)Cc1ccc(OC(=O)c2ccc(NC(=N)N)cc2)cc1 records growth of 90% or higher.
[reply] Not fulfilled

[ask] Test whether the compound CCCOc1ccc(C(F)(F)F)cc1NC(=O)c1nc2nccc(C)n2n1 records growth of 90% or higher.
[reply] Not fulfilled

====

# System: Madurella mycetomatis MM55
# assay overview: growth relative to untreated control; higher = less inhibition, active = 20 or less
# conditions used: 25 µM
reported metric: growth (%)
Numbers only; they are read as %.

[ask] Given the compound NC(=O)c1ncn([C@@H]2O[C@H](CO)[C@@H](O)[C@H]2O)n1 , what is its reported growth?
[reply] 87.9

[ask] Given the compound C[C@]1(c2nc3c(C(N)=O)cccc3[nH]2)CCCN1 , what is its reported growth?
[reply] 130

[ask] Given the compound COC(=O)C1=C(C)NC(C)=C(C(=O)OCCN2CCN(C(c3ccccc3)c3ccccc3)CC2)C1c1cccc([N+](=O)[O-])c1 (centres undefined) , what is its reported growth?
[reply] 81.7

# input for lookup
[ask] Given the compound Clc1ccc2c(N3CCN(CCCN4CCN(c5ccnc6cc(Cl)ccc56)CC4)CC3)ccnc2c1 , what is its reported growth?
[reply] 95.9

====

# System: Falciformispora senegalensis CBS197.79
# assay overview: growth relative to untreated control; higher = less inhibition, active = 20 or less
# conditions used: 100 µM
Result category, one only: yes (1) (active), no (0) (inactive)

[ask] Recorded call for O=C(NCCN1CCCC1)c1ccc(Nc2nccc(-c3ccc(Cl)cc3)n2)cc1 ?
[reply] yes (1)

[ask] Recorded call for CC(C)Oc1ccc(-c2nc(-c3cccc4c3CC[C@@H]4NCCO)no2)cc1C#N ?
[reply] yes (1)

[ask] Recorded call for CN(C)C1CC(NC(=O)c2ccc(Nc3nccc(-c4ccc(Cl)c(C(F)(F)F)c4)n3)cc2)C1 (centres undefined) ?
[reply] no (0)

Others:
[ask] Recorded call for COc1c(C)c2c(c(O)c1C/C=C(\C)CCC(=O)O)C(=O)OC2 ?
[reply] no (0)

[ask] Recorded call for CN(C)CCOc1ccc(/C(=C(/CCCl)c2ccccc2)c2ccccc2)cc1 ?
[reply] yes (1)

====

# Test system: Falciformispora senegalensis CBS197.79
# assay overview: growth relative to untreated control; higher = less inhibition, active = 20 or less
# conditions used: 100 µM
reported metric: growth (%)
Numbers only; they are read as %.

[ask] Given the molecule c1cc(N2CCC(CN3CCOCC3)CC2)c2sccc2n1 , what is its reported growth?
[reply] 32.1

[ask] Given the molecule CCOC(=O)c1c(CSc2ccccc2)n(C)c2cc(Br)c(O)c(CN(C)C)c12 , what is its reported growth?
[reply] 97.8

====

# System: Madurella mycetomatis MM55
# assay overview: growth relative to untreated control; higher = less inhibition, active = 20 or less
# conditions used: 100 µM
reported metric: growth (%)
Numbers only; they are read as %.

[ask] Given the molecule CNc1ccc2cc(NC(=O)c3ccc(C(F)(F)F)c(Cl)c3)ccc2n1 , what is its reported growth?
[reply] 77.4

[ask] Given the molecule c1ccc(CCc2nc3cccnc3n2C2CCN(C3CCN(Cc4ccccc4)CC3)CC2)cc1 , what is its reported growth?
[reply] 5.59

[ask] Given the molecule COCC[C@H](NC(=O)c1cc2ccc(C(F)(F)F)cc2[nH]1)c1ccccc1 , what is its reported growth?
[reply] 52.2

[ask] Given the molecule O=C(Nc1ncccc1O)c1ccc(N2CCOCC2)nc1 , what is its reported growth?
[reply] 95.8

Others:
[ask] Given the molecule C=CC(=O)Nc1cc(Nc2nccc(-c3cn(C)c4ccccc34)n2)c(OC)cc1N(C)CCN(C)C , what is its reported growth?
[reply] 2.43

[ask] Given the molecule COc1ccc(-c2cnc3c(-c4ccccc4)c(-c4ccccc4)nn3c2N)cc1OC , what is its reported growth?
[reply] 70.2

[ask] Given the molecule Nc1nc(S)c2[nH]cnc2n1 , what is its reported growth?
[reply] 92.8

[ask] Given the molecule NC(=O)N1CCC(CC(=O)N2CCC([C@H]3c4ncc(Br)cc4CCc4cc(Cl)cc(Br)c43)CC2)CC1 , what is its reported growth?
[reply] 11.2

====

# Test system: Madurella mycetomatis MM55
# assay overview: growth relative to untreated control; higher = less inhibition, active = 20 or less
# conditions used: 25 µM
Result category, one only: T (active), F (inactive)

Worked examples, 3 compounds total:
[ask] Recorded call for COc1ccc(CCN(Cc2cccs2)C(=O)c2cc3sccc3n2C)cc1OC ?
[reply] T

[ask] Recorded call for O=S(=O)(NCC1(O)CCOc2ccccc21)c1ccccc1F (stereo not given) ?
[reply] F

[ask] Recorded call for CO[C@H]1C[C@H](O[C@@H]2/C(C)=C/C[C@@H]3C[C@@H](C[C@]4(CC[C@H](C)[C@@H](C5CCCCC5)O4)O3)OC(=O)[C@@H]3C=C(C)/C(=N/O)[C@H]4OC/C(=C\C=C\[C@@H]2C)[C@]43O)O[C@@H](C)[C@@H]1O ?
[reply] F

Others:
[ask] Recorded call for CCCCN(CCCC)CC(O)c1cc(Cl)cc2c1-c1ccc(Cl)cc1/C2=C/c1ccc(Cl)cc1 (stereo not given) ?
[reply] F

[ask] Recorded call for O=c1[nH]ccc2nc(N[C@@H]3CCNC3)nc(Nc3ccc4c(c3)S(=O)(=O)CC4)c12 ?
[reply] F

====

# System: Falciformispora senegalensis CBS197.79
# assay overview: growth relative to untreated control; higher = less inhibition, active = 20 or less
# conditions used: 100 µM
reported metric: growth (%)
Numbers only; they are read as %.

[ask] Given the compound CCOc1ccccc1NC(=O)Cn1c(=O)n(Cc2ccccc2)c(=O)c2c(C)c(C(=O)N(C)C)sc21 , what is its reported growth?
[reply] 108

Others:
[ask] Given the compound CN1CCC(Oc2nc(Nc3ccccc3)nc3[nH]cc(-c4cnn(C)c4)c23)CC1 , what is its reported growth?
[reply] 79

[ask] Given the compound CO[C@@H](C(=O)N1Cc2[nH]nc(NC(=O)c3ccc(N4CCN(C)CC4)cc3)c2C1)c1ccccc1 , what is its reported growth?
[reply] 102

[ask] Given the compound CC(C)(C)c1nn(-c2ccc(Cl)cc2)c2[nH]c(=O)c(CNCc3ccc4c(c3)OCO4)cc12 , what is its reported growth?
[reply] 66.3

[ask] Given the compound Cc1cccc(-c2noc(-c3ccccc3)n2)c1 , what is its reported growth?
[reply] 99.4

[ask] Given the compound C[C@H]1O[C@@H](O[C@H]2[C@@H](O)C[C@H](O[C@H]3[C@@H](O)C[C@H](O[C@H]4CC[C@@]5(C)[C@H](CC[C@@H]6[C@@H]5C[C@@H](O)[C@]5(C)[C@@H](C7=CC(=O)OC7)CC[C@]65O)C4)O[C@@H]3C)O[C@@H]2C)C[C@H](O)[C@@H]1O , what is its reported growth?
[reply] 106

[ask] Given the compound CC(C)c1cc(Oc2ccccc2)cc(C(C)C)c1NC(=S)NC(C)(C)C , what is its reported growth?
[reply] 90.7

[ask] Given the compound CC(C)Nc1cccnc1N1CCN(C(=O)c2cc3cc(NS(C)(=O)=O)ccc3[nH]2)CC1 , what is its reported growth?
[reply] 96.5

====

# Tested on: Madurella mycetomatis MM55
# assay overview: growth relative to untreated control; higher = less inhibition, active = 20 or less
# conditions used: 25 µM
Result category, one only: yes for active, no for inactive

Worked examples, 8 compounds total:
[ask] Recorded call for CCOc1ccc(Cc2nccc3cc(OCC)c(OCC)cc23)cc1OCC ?
[reply] no

[ask] Recorded call for NS(=O)(=O)OC[C@@H]1C[C@@H](n2ccc3c(N[C@H]4CCc5ccccc54)ncnc32)C[C@@H]1O ?
[reply] no

[ask] Recorded call for O=C(NC1(CO)CCOCC1)c1cc2ccc(C(F)(F)F)cc2[nH]1 ?
[reply] no

[ask] Recorded call for Cn1cc(CN2CCc3c(c(C(=O)NCc4nccs4)nn3Cc3ccccc3)C2)c2ccccc21 ?
[reply] no

[ask] Recorded call for CCN1CCC(c2cc(C)c3nc(-c4cc5c(C)nc(C)cn5n4)cc(=O)n3c2)CC1 ?
[reply] no

[ask] Recorded call for CC1(O)CN(C(=O)c2cccc(NC(=O)c3ccc(Nc4ccccn4)cc3)c2)C1 ?
[reply] no

[ask] Recorded call for CNCc1[cH-]ccc1CNc1ccnc2cc(Cl)ccc12.[Fe+2].c1cc[cH-]c1 ?
[reply] yes

[ask] Recorded call for c1cc(-c2n[nH]c3ccc(-c4n[nH]c(C5CCCN5)n4)cc23)ccc1CNC1CC1 (centres undefined) ?
[reply] no

Others:
[ask] Recorded call for Nc1nc(NC2CC2)c2ncn([C@H]3C=C[C@@H](CO)C3)c2n1 ?
[reply] no
